The reported measurements were obtained from a melting point compilation (Tetko et al.; mined from patent text by program, amines drawn as free bases though some values may be those of a salt).

Property: melting point; scope: individual molecules

Take a look at these entries with their results.
                                   molecule  recorded_measurement
0  CC(COc1ccc(-n2nc3c(cc2=O)CCc2ccc(F)cc2-3)cc1)N(C)C (centres undefined)         178 to 180 °C
1  CN(C)Cc1cc(C(=O)Nc2nc(-c3ccco3)c(C(=O)c3ccccc3)s2)ccn1         205 to 209 °C
2    Cc1c[nH]c2c([N+](=O)[O-])ccc(Cl)c2c1=O              > 250 °C
3  CN1CCN2c3ccc(Cl)cc3C(c3ccco3)=NCC2C1 (centres undefined)              > 240 °C
4  COC(=O)C1C(=O)Nc2ccc(Cl)cc2CC1c1ccc(OC)cc1 (centres undefined)         189 to 190 °C
5         CC1(C)CCn2c(nc(-c3ccccn3)cc2=O)N1         345 to 347 °C
6  COC(=O)CCC1=C(C)C2=NC1(CCC(=O)OC)C(C)C1(CCC#N)NC(C)(C=C3C=CC(=N3)C=c3ccc([nH]3)=C2)C(CCC#N)=C1C (centres undefined)         201 to 205 °C
7  CCCCNc1cc(C(=O)O)cc(S(N)(=O)=O)c1Sc1ccc(N)cc1         232 to 234 °C
8  N#CCCNC(=O)c1cccc(-c2ccc3ncn(Cc4ccc(Cl)cc4Cl)c3n2)c1         218 to 219 °C
9        CC(C)Cn1c(=O)n(C)c(=O)c2c(N)ncnc21         192 to 193 °C

Input line: What does the record list as melting point for CCOC(=O)C1=C(N)NC2=C(C(=O)CCC2)C1c1cc(OC)c(OC)cc1[N+](=O)[O-] (centres undefined) ?
Output line: 261 °C

Input line: What value of melting point has been recorded for this entry: `CCC(CC)c1nn(-c2ccc(C(F)(F)F)cn2)cc1CCCO`
Output line: 79 to 80 °C

====

# melting point per record follows

Recorded results for 4 compounds are shown here.
>>> df
                                   compound  recorded_measurement
0         CC(C)(C)CNc1nc(Cl)cc(NC(C)(C)C)n1         115 to 119 °C
1  CN1C(=O)CSC(c2cccc(Cl)c2)c2cc(C(N)(c3ccc(Cl)cc3)c3cncn3C)ccc21 (stereo unspecified)                218 °C
2  CC(=O)Nc1nc2c(Oc3cc(-c4ccc(C(F)(F)F)cc4NCC4CCCCC4)ncn3)cccc2s1         232 to 234 °C
3              CNS(=O)(=O)c1cc(C)sc1CC(=O)O                109 °C

Field: next compound
Input line: Recorded melting point for `COc1ccccc1C(=O)c1cccc(C(=O)O)c1` , please?
Output line: 170 to 172 °C

====

Attribute: melting point

Record excerpt, results attached:
                                   compound  recorded_measurement
0   Cc1cc2c(CN3CCC(C)CC3)c(CO)c(Cl)nc2cc1Cl         170 to 172 °C
1  CC(=O)C(C)Oc1nn(C(C)C(C)=O)c(-c2ccc(S(C)(=O)=O)cc2)c1-c1ccc(F)cc1 (stereo not drawn)         127 to 129 °C

Input line: Value lookup for melting point; key = `S=c1[nH]ccn1Cc1ccco1`
Output line: 106 to 108 °C

Input line: Entry under review: `CC(=O)Oc1cc2c(cc1F)C1(OC(=O)c3c1ccc(N)c3N)c1cc(F)c(OC(C)=O)cc1O2` . Reported melting point?
Output line: 135 °C

Input line: Value lookup for melting point; key = `CCCn1c2cc(Cl)ccc2c(=O)c2cccn21`
Output line: 107 to 108 °C

Input line: Record request: melting point value, item `CNC(=O)N(C)C(=O)N1CCN(c2ccccc2)CC1`
Output line: 79 to 80 °C

Input line: Record request: melting point value, item `COc1ccccc1NS(=O)(=O)c1ccc([N+](=O)[O-])cc1[N+](=O)[O-]`
Output line: 172 to 173 °C

Input line: // lookup melting point for CCOC(=O)C(C=O)c1ccc(Cl)cc1 (stereo not drawn)
Output line: 50 °C

====

Property: melting point; scope: individual compounds

In [3]: df
Out[3]:
                                   compound  recorded_measurement
0  O=C(NC(Cc1ccncc1)C(=O)O)OCc1cc2cc(-c3cccnc3)ccc2o1 (stereo not drawn)                257 °C
1    Cc1occ(-c2ccccc2F)c1C(=O)Nc1cccc(CO)c1         163 to 164 °C
2  CC(=O)SCC(C)C(=O)N(CC(=O)O)C1CCCCCC1 (stereo not drawn)         116 to 117 °C
3  O=[N+]([O-])c1cn2c(n1)OC[C@@H](OCc1ccc(-c3nc4cc(OC(F)(F)F)ccc4[nH]3)cc1)C2           98 to 99 °C
4  C=C(C)C(=O)N1c2ccc(OC)cc2CC1C(=O)O (stereo not drawn)         108 to 111 °C

Input line: If you can, please state the reported melting point value of `Brc1cncc2ncc(Br)n12` .
Output line: 150 °C

Input line: Give its melting point value. Item: `CCOC(=O)Cc1ccc(NC(=O)/C=C/c2cnn(C)c2-c2ccc(F)cc2)cc1`
Output line: 177 to 178 °C

Input line: Using the record for `CC(=NNc1ccccc1)c1ccc(N2CCN(c3c(C)nc(N)nc3N)CC2)cc1` , report its melting point.
Output line: 239 to 241 °C

Input line: May I ask what melting point has been recorded for `Cc1cc(-c2nn(C3CCCC3)c3c(F)cccc23)ccc1O` ?
Output line: 107 °C

Input line: Look up melting point for this compound: `Cc1cc(C(F)(F)F)nn1CC(=O)N1CCC(c2nc(NC(=O)C3=C(O)CCCC3=O)cs2)CC1`
Output line: 102 to 105 °C

Input line: // lookup melting point for `CN1CCC(c2nn(CO)c3ccccc23)CC1`
Output line: 128 to 130 °C

Input line: Find the recorded melting point belonging to CCOC(=O)C1=CC(=O)CC(c2ccc(Cl)cc2)N1 (stereo not drawn) and report it.
Output line: 93 to 94 °C

====

metric name: melting point

Here's what some known entries look like.
>>> df
                           molecular_string    metric_name  recorded_measurement
0  CCCCCCCN(Cc1ccc(C(C)(C)C)cc1)C(Nc1c(C)cc(C)cc1C)=C1C(=O)COC1=O  melting point         141 to 143 °C
1   CCc1nc(-c2ccccc2)n(CC(C)(OC)OC)c(=O)c1C  melting point           80 to 83 °C
2  Cc1nc(CO)c2n1-c1ccc(Cl)cc1C(c1ccccc1F)=NC2  melting point         233 to 235 °C

Input line: What melting point value was documented for this compound, `CC(=O)NNc1ccc(N=C=S)cc1` ?
Output line: 172 to 174 °C

Input line: Value lookup for melting point; key = `CS(=O)(=O)c1c(C(=O)O)ccc(Cl)c1F`
Output line: 208 to 209 °C

Input line: Which melting point value belongs to `COc1cccc2c1OCN(CCc1ccccc1Cl)C2` ?
Output line: 79 to 81 °C

====

metric name: melting point

                                   compound  recorded_measurement
0        CCN(C(=O)C(F)(F)F)c1ccc(C(=O)O)cc1                132 °C
1  COc1ccc2c(c1)c(-c1ccccc1)cc(=O)n2Cc1c(Cl)cncc1Cl         191 to 192 °C
2  CS(=O)CC(=O)c1ccc(Cl)cc1N (centres undefined)         129 to 132 °C
3  O=C(Nc1cc2ncc(CN3CCCC3)cc2cc1F)c1ccc(-c2ccccc2)cc1         206 to 208 °C
4  CCN(CC)CC1CCCCN1CCNC(=O)N1c2ccc(Cl)cc2C(=O)Nc2cccnc21 (centres undefined)         138 to 140 °C
5  CNC(=O)c1cccc(F)c1Nc1nc(Nc2ccc3c(c2)CCN(CCOC)CC3)ncc1Br          99 to 105 °C
6     O=C(CP(=S)(c1ccccc1)c1ccccc1)c1ccccc1           83 to 84 °C
7            Brc1cn2cc(-c3ccccc3)nc2c(Br)n1                254 °C

Now take the following compound into account.
Input line: Value lookup for melting point; key = `Cc1ccc(N)cc1Nc1nccc(-c2cncnc2)n1`
Output line: 164 to 167 °C

====

Property: melting point; scope: individual compounds

Input line: Need melting point of `Cc1c(S(C)(=O)=O)cc(C(C)(C)C)c(O)c1C(=O)Nc1ccc(S(=O)(=O)C(F)(F)F)cc1Cl` , thanks.
Output line: 220 to 221 °C
